Test: Food-effect crossover study, plasma and urine PK after single 20 mg amifampridine phosphate in healthy subjects (Examples 10, 12)
Assay type: in vivo, human
Settings: human, plasma, oral, 20 mg, fed; read-out: AUC0-t, individual subject range
readout.label: AUC(0-t)

Entry Nc1ccncc1N [3,4-DAP, 3,4-diaminopyridine] — recorded AUC(0-t) = 8.3 to 282 ng·h/mL

----------
Assay: Example 18 Part 2: multiple dose PK (20 mg QID) of 3,4-DAP and 3-N-acetyl metabolite in slow and fast acetylators
Type: in vivo, human
Conditions: both sexes, human, plasma, oral, 20 mg, Day 1, Dose 1-4, slow acetylators, 20 mg QID; read-out: Mean AUC0-24
readout.label: AUC(0-t) (ng·h/mL)
Report the value in ng·h/mL with no unit label.

The compound Nc1ccncc1N showed AUC(0-t) equal to 630

----------
Test: Example 18 Part 2: multiple dose PK (20 mg QID) of 3,4-DAP and 3-N-acetyl metabolite in slow and fast acetylators
Assay type: in vivo, human
Settings: both sexes, human, plasma, oral, 20 mg, Day 4, 20 mg single dose, slow acetylators; read-out: Mean AUC0-24
readout.label: AUC(0-t) (ng·h/mL)
The response must be a number in ng·h/mL with no trailing unit.

response.value for Nc1ccncc1N (field: AUC(0-t)) = 186

----------
Assay: Example 18 Part 2: multiple dose PK (20 mg QID) of 3,4-DAP and 3-N-acetyl metabolite in slow and fast acetylators
Type: in vivo, human
Details: both sexes, human, plasma, oral, 20 mg, metabolite, Day 4, 20 mg single dose, slow acetylators; read-out: Mean AUC0-24
readout.label: AUC(0-t)
Answer as a quantity: numeral, then unit.

compound CC(=O)Nc1cnccc1N [3-N-acetyl amifampridine, N-(4-aminopyridin-3-yl)acetamide] , AUC(0-t) observed: 1230 ng·h/mL

----------
Assay: Example 18 Part 2: multiple dose PK (20 mg QID) of 3,4-DAP and 3-N-acetyl metabolite in slow and fast acetylators
Format: in vivo, human
Conditions: both sexes, human, plasma, oral, 20 mg, Day 1, Dose 4, slow acetylators, 20 mg QID; read-out: Mean t1/2 (converted)
readout.label: half-life (h)
Kindly answer with a numeric value in h, unit omitted.

Entry Nc1ccncc1N — recorded half-life = 2.52

----------
Assay: Example 18 Part 2: multiple dose PK (20 mg QID) of 3,4-DAP and 3-N-acetyl metabolite in slow and fast acetylators
Type: in vivo, human
Settings: both sexes, human, plasma, oral, 20 mg, Day 1, slow acetylators, Dose 3 interval, 20 mg QID, arith. mean; read-out: Tmax
readout.label: Tmax (h)
Report the value in h with no unit label.

Reported Tmax for CC(=O)Nc1cnccc1N [3-N-acetyl amifampridine, N-(4-aminopyridin-3-yl)acetamide] was 1.25

----------
Test: Example 18 Part 2: multiple dose PK (20 mg QID) of 3,4-DAP and 3-N-acetyl metabolite in slow and fast acetylators
Assay type: in vivo, human
Settings: both sexes, human, plasma, oral, 20 mg, Day 1, Dose 3, fast acetylators, 20 mg QID; read-out: Mean Tmax
readout.label: Tmax (min)
Return type: number; implicit unit min.

response.value for Nc1ccncc1N [3,4-DAP, 3,4-diaminopyridine] (field: Tmax) = 35

----------
Assay: Example 18 Part 2: multiple dose PK (20 mg QID) of 3,4-DAP and 3-N-acetyl metabolite in slow and fast acetylators
Format: in vivo, human
Conditions: both sexes, human, plasma, oral, 20 mg, Day 1, Dose 4, fast acetylators, 20 mg QID; read-out: Mean AUC0-4
readout.label: AUC(0-t) (ng·h/mL)
Quick reminder: number only, in ng·h/mL, skip the unit.

The recorded AUC(0-t) for entry Nc1ccncc1N equals 23.7
